In this section, each of the compounds is paired with its reported composite z-score.
tested on: Inhibin beta A chain (activin A); test: INHBA (activin A) binders on microarrays, primary screen, biochemical, small-molecule microarray, 635 nm fluorescence scan (AID 1107); details: small-molecule microarray binding, higher = more signal;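 note: mouse activin A protein probed at 4.33 µg/mL on printed slides; score merges bound-protein fluorescence near 667 nm with spot signal-to-noise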
test-readout: composite z-score

- query-smiles: "COC(=O)[C@@]1(Cc2ccc(F)cc2)[C@H]2c3cc(C(=O)N4CCCC4)n(CCF)c3C[C@H]2CN1C(=O)c1ccccc1"
  test-readout: "composite z-score"
  meas-value: 1.03
- query-smiles: "CCOC(=O)C[C@H]1[C@H](OC(=O)c2ccccc2-c2ccccc2)[C@@H](NC(=O)CC(C)C)c2cc(OCCCO)ccc2N1C(=O)c1ccc2ccccc2n1"
  test-readout: "composite z-score"
  meas-value: 1.08
- query-smiles: "C=CCOC(=O)[C@@H]1[C@H]2C(=O)O[C@H](c3ccccc3)[C@H](c3ccccc3)N2[C@H](c2ccc(OCCOC(=O)[C@H]3C[C@H]4C(=O)N[C@@H](CCCCNC(C)=O)C(=O)N4[C@H]3c3cccc(OCCO)c3)cc2)[C@@]12C(=O)Nc1ccc(I)cc12"
  test-readout: "composite z-score"
  meas-value: 0.124

----------
Each entry below carries its recorded composite z-score.
system: Human papillomavirus type 1a E7 protein (residues 1-88); assay: HPV1a E7 small-molecule binders, primary screen, biochemical, small-molecule microarray, residues 1-88, 635 nm (AID 1129); settings: small-molecule microarray binding, fluorescence 635 nm; higher = more signal

- query-smiles: "CCCc1cccc(=O)o1"
  experimental-target: "Human papillomavirus type 1a E7 protein (residues 1-88)"
  composite z-score: 0.799
- query-smiles: "CN(C)CCCCNC(=O)[C@H]1C[C@H]2C(=O)N[C@@H](CCCCN(C)C)C(=O)N2[C@H]1c1cccc(OCCO)c1"
  experimental-target: "Human papillomavirus type 1a E7 protein (residues 1-88)"
  composite z-score: 0.603
- query-smiles: "C=C(CCCC)/C(=C/C[C@@H](OC(=O)c1ccncc1)c1cccc(OCCO)c1)c1cnc2ccccc2c1"
  experimental-target: "Human papillomavirus type 1a E7 protein (residues 1-88)"
  composite z-score: 0.539
- query-smiles: "COc1ccc([Si](C)(C)[C@H]2[C@H](CCn3cc([C@H](O)c4ccccc4)nn3)O[C@@]3(C(=O)N(Cc4cccc(N5C(=O)c6cccc7cccc5c67)c4)c4ccccc43)[C@@H]2C)cc1"
  experimental-target: "Human papillomavirus type 1a E7 protein (residues 1-88)"
  composite z-score: -0.859

----------
experiment: basal MM1S mitochondrial membrane potential changes, profiling panel, cell-based, JC-1 fluorescence, 24 h, 100 nL compound (AID 1170); details: higher = more signal; note: test concentration not given here
Grouping rule (z-score): low: < -0.8; intermediate: ≥ -0.8 and < -0.3; high: ≥ -0.3

- compound: "CC(C)C(CO)N1C(=O)[C@]2(C)C3C(=O)OCCC/C=C\\[C@H]3OC23C=CCN(c2ccc(Cl)cc2)C(=O)[C@@H]13 (some centres undefined)"
  category-label: "high"
- compound: "COc1c(C)cc(-c2cc3c(c(-c4ccccc4)n2)[Si](C(C)C)(C(C)C)OC3)cc1C"
  category-label: "high"
- compound: "COCCOC(=O)N1C(=O)[C@@]2(c3cc(C#CC4(O)CCCCCC4)ccc31)[C@H](C(=O)N1CCCCCCC1)[C@H]1C(=O)O[C@H](c3ccccc3)[C@H](c3ccccc3)N1[C@@H]2c1ccc(OCCO)cc1"
  category-label: "intermediate"
- compound: "COCCOC(=O)N1C(=O)[C@@]2(c3cc(C#CC4(O)CCCCCC4)ccc31)[C@H](C(N)=O)[C@H]1C(=O)O[C@H](c3ccccc3)[C@H](c3ccccc3)N1[C@@H]2c1ccccc1OCCO"
  category-label: "low"
- compound: "NCCCCCCNC(=O)[C@@H]1C[C@@H]2C(=O)N3CCC[C@H]3C(=O)N2[C@@H]1c1ccc(O)cc1"
  category-label: "high"
- compound: "COCCCNC(=O)[C@]1(Cc2ccccc2CN=[N+]=[N-])N=C(c2ccc(OCCCO)cc2)O[C@@H]1c1ccccc1"
  category-label: "low"
- compound: "CC(C)CNC(=O)[C@@]1(c2ccc([N+](=O)[O-])cc2)CC(=O)N(C2CCCCC2)[C@@H]1c1ccc(CO)cc1I"
  category-label: "high"
- compound: "CC=CC(O)C1C=CC2C(=O)N(c3ccccc3)C(=O)C2N1Nc1ccccc1 (centres undefined)"
  category-label: "intermediate"
- compound: "COC(=O)C[C@H]1O[C@]2(C(=O)N(C)c3ccccc32)[C@@H](C)[C@@H]1[Si](C)(C)c1ccc(C)cc1"
  category-label: "high"
- compound: "CC(C)(C)OC(=O)CC[C@]1(C(=O)O)N=C(c2ccc(OCCCO)cc2)O[C@H]1c1ccccc1CN=[N+]=[N-]"
  category-label: "intermediate"
- compound: "COCCOC(=O)N1C(=O)[C@@]2(c3cc(C#CCNC(N)=O)ccc31)[C@H](C(=O)N1CCCCCCC1)[C@H]1C(=O)O[C@H](c3ccccc3)[C@H](c3ccccc3)N1[C@@H]2c1ccc(O)cc1"
  category-label: "high"
- compound: "Cc1ccc(S[C@]2(C(=O)NC(C)C)CC(=O)N(C3Cc4ccccc4C3)[C@@H]2c2ccc(CO)cc2I)cc1"
  category-label: "low"
- compound: "CCOC(=O)C1=CC[C@@H](c2ccccc2C(F)(F)F)N(S(=O)(=O)c2ccc(C)cc2)C1"
  category-label: "intermediate"
- compound: "COc1cc(CO)cc(I)c1O[C@H]1C=C(C(=O)NCCO)C[C@@H](N(CC2CCCCC2)C(=O)c2ccc(C(F)(F)F)cc2)[C@@H]1O"
  category-label: "intermediate"
- compound: "CN1C2C=C(CCCO)C(C3C(=O)N(C(N)=O)C(=O)C32)C1c1cccs1 (centres undefined)"
  category-label: "high"
- compound: "CCOC(=O)C[C@H]1[C@H](OC(=O)c2ccccc2-c2ccccc2)[C@@H](NC(=O)CC(C)C)c2cc(OCCCO)ccc2N1C(=O)c1ccc2ccccc2n1"
  category-label: "high"
- compound: "COc1ccc([Si](C)(C)[C@@H]2[C@@H](CCO)O[C@]3(C(=O)N(Cc4cccc(N5C(=O)c6ccccc6Oc6ccccc65)c4)c4ccccc43)[C@H]2C)cc1"
  category-label: "low"
- compound: "CN1C(=O)C2C(C1=O)C1C=C(c3ccc(CO)cc3)C2C(c2cccs2)N1Cc1cccc(OC(F)(F)F)c1 (centres undefined)"
  category-label: "intermediate"
- compound: "O=C(CS)NCCCCCCNC(=O)[C@H]1C[C@H]2C(=O)N[C@@H](Cc3ccccc3)C(=O)N2[C@H]1c1cccc(OCCO)c1"
  category-label: "low"
- compound: "C=C(C(=O)CC[C@H](OC(=O)c1cccnc1)c1ccc(CO)o1)C(C)C"
  category-label: "intermediate"
- compound: "COc1ccccc1CN1C(=O)c2ccccc2[C@@H](C(=O)NC(C)C)[C@@H]1c1ccc(CO)cc1"
  category-label: "intermediate"
- compound: "C=CCNC(=O)[C@@H]1[C@H]2C(=O)O[C@H](c3ccccc3)[C@H](c3ccccc3)N2[C@H](c2ccccc2OCCO)[C@@]12C(=O)N(C(=O)OCCOC)c1ccc(C#CC3=CCCCC3)cc12"
  category-label: "low"
- compound: "CC(C)C(O)C1C=CC2C(=O)N(C)C(=O)C2N1Nc1ccccc1 (centres undefined)"
  category-label: "high"
- compound: "C=C(CCCC)C(=O)CC[C@@H](OC(=O)c1cccnc1)c1ccccc1OCCO"
  category-label: "low"
- compound: "Cc1c(NC(=O)/C(C#N)=C/C=C/c2ccc(N(C)C)cc2)c(=O)n(-c2ccccc2)n1C"
  category-label: "high"
- compound: "COC(=O)Cn1c(C(=O)N2CCCC2)cc2c1C[C@H]1CN(C(=O)c3ccccc3)[C@@](Cc3ccc(F)cc3)(C(=O)OC)[C@@H]21"
  category-label: "low"
- compound: "CC(C)(C)OC(=O)CC[C@]1(C(=O)N2CCOCC2)N=C(c2ccc(OCCCO)cc2)O[C@H]1c1ccccc1"
  category-label: "intermediate"
- compound: "CC(=O)N1Cc2ccccc2C[C@]2(N=C(c3ccc(OCCCO)cc3)O[C@@H]2c2ccccc2)C1=O"
  category-label: "intermediate"

----------
target: Calmodulin-1 (Homo sapiens); experiment: calcium-bound CALM1 binders on microarrays, profiling panel, artefact control for SMM control-protein annotation, biochemical, small-molecule microarray, Cy5-labelled CALM1, plus calcium (AID 1112); conditions: Cy5-CALM1 binding fluorescence, higher = more signal;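 note: score merges spot fluorescence with signal to noise from triplicate slides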
// label = yes if composite z-score is not less than 0.3, otherwise no

- molecule: "Cc1ccc(C(C)CC(O)C2C=CC3C(=O)N(c4ccccc4)C(=O)C3N2Nc2ccc(C(C)C)cc2)o1 (centres undefined)"
  category-label: "yes"
- molecule: "NC(=O)N1C(=O)C2C(C1=O)C1C=C(c3ccc(CO)cc3)C2C(C2CC2)N1Cc1sc2ccccc2c1Cl (centres undefined)"
  category-label: "no"
- molecule: "NC(=O)NCC#Cc1ccc2c(c1)[C@]1(C(=O)N2)[C@H](C(=O)Nc2nc3ccccc3s2)[C@H]2C(=O)O[C@H](c3ccccc3)[C@H](c3ccccc3)N2[C@@H]1c1ccc(O)cc1"
  category-label: "yes"
- molecule: "CN(C)C(=O)[C@@]1(Cc2ccccc2N=[N+]=[N-])COC(c2ccc(OCCCO)cc2)=N1"
  category-label: "no"
- molecule: "O=C(O)[C@H](Cc1ccccc1)n1cc(-c2ccccn2)nn1"
  category-label: "yes"
- molecule: "C=CCOC(=O)[C@H]1[C@@H]2C(=O)O[C@@H](c3ccccc3)[C@@H](c3ccccc3)N2[C@@H](c2ccc(OCCOC(=O)[C@H]3C[C@H]4C(=O)N[C@@H](CCCC[N+](C)(C)C)C(=O)N4[C@H]3c3cccc(OCCO)c3)cc2)[C@]12C(=O)Nc1ccc(I)cc12"
  category-label: "no"
- molecule: "C=C(/C(=C/C[C@@H](OC(=O)c1ccncc1)c1ccc(OCCO)cc1)c1cc(C(=O)OC)ccc1OC)C(C)C"
  category-label: "no"
- molecule: "CCOC(=O)C[C@H]1[C@H](OC(=O)Cc2ccc3c(c2)OCO3)[C@@H](NC(=O)Cc2ccc(OC)cc2)c2cc(OCCCO)ccc2N1C(=O)c1ccccc1"
  category-label: "no"
- molecule: "C=CCN1C(=O)[C@@]2(CCC(=O)OC(C)(C)C)N=C(c3ccc(OCCCO)cc3)O[C@H]2c2ccccc21"
  category-label: "yes"
- molecule: "CC=CC(O)C1C=CC2C(=O)N(c3ccccc3)C(=O)C2N1Nc1ccccc1 (centres undefined)"
  category-label: "yes"
- molecule: "C=C1C2CC3C(=C4C(CO[C@@H]4[C@H]4CCCN4S(=O)(=O)c4ccccc4[N+](=O)[O-])C4C(=O)N(C)C(=O)C34)CC2C(=O)N1C (some centres undefined)"
  category-label: "no"
- molecule: "Cc1ccc(F)cc1S(=O)(=O)N[C@@H]1CCN(Cc2ccc(Oc3ccccc3)cc2)C1"
  category-label: "no"
- molecule: "CO[C@H]1O[C@H](CO)[C@@H](OC(=O)Nc2ccccc2-c2ccccc2)[C@H](OC(=O)Nc2ccc3c(c2)OCO3)[C@@H]1OC(=O)Nc1ccc2c(c1)OCO2"
  category-label: "no"
- molecule: "COCCCNC(=O)[C@@]1(Sc2ccc(C)cc2)CC(=O)N(Cc2cc(C(F)(F)F)cc(C(F)(F)F)c2)[C@@H]1c1ccc(CO)cc1"
  category-label: "no"
